Tested on: Calu-3
measurement_description: relative viability EC50 (midpoint between 100% and the lowest measured viability); higher = less toxic
settings: 72 h

molecule: NC(=O)c1cccc2cn(-c3ccc([C@@H]4CCCNC4)cc3)nc12
relative viability EC50: > 10 µM
//
molecule: CC(C)(CO)c1cc2cc(NC(=O)C3(c4ccc5c(c4)OC(F)(F)O5)CC3)c(F)cc2n1C[C@@H](O)CO
relative viability EC50: > 10 µM
//
molecule: C=CCSCC1Nc2cc(Cl)c(S(N)(=O)=O)cc2S(=O)(=O)N1 (stereo unspecified) [althiazide]
relative viability EC50: > 10 µM
//
molecule: NCc1ccc(S(N)(=O)=O)cc1 [mafenide]
relative viability EC50: > 10 µM
//
molecule: C1=N/C2=N/c3ccc(OCCN4CCCC4)c(c3)COC/C=C/COCc3cccc(c3)C(=C1)N2
relative viability EC50: 3.34 µM
//
molecule: c1ccc2[nH]c(-c3cscn3)nc2c1
relative viability EC50: > 10 µM
//
molecule: Cc1c(N)nc([C@H](CC(N)=O)NC[C@H](N)C(N)=O)nc1C(=O)N[C@H](C(=O)N[C@H](C)[C@@H](O)[C@H](C)C(=O)N[C@H](C(=O)NCCc1nc(-c2nc(C(=O)NCCC[S+](C)C)cs2)cs1)[C@@H](C)O)[C@@H](OC1OC(CO)C(O)C(O)C1OC1OC(CO)C(O)C(OC(N)=O)C1O)c1cnc[nH]1 (stereo partly specified)
relative viability EC50: 0.536 µM
//
molecule: CN(C)c1ccc(/C=C2\CCCN=C2c2cccnc2)cc1
relative viability EC50: > 10 µM
//
molecule: CC[N+](C)(CC)CCC[n+]1c(-c2ccccc2)c2cc(N)ccc2c2ccc(N)cc21 [propidium-iodide]
relative viability EC50: > 10 µM
//
molecule: CCCCC[C@H](O)/C=C/[C@H]1[C@H](O)CC(=O)[C@@H]1C/C=C\CCCC(=O)O
relative viability EC50: > 10 µM
//
molecule: CC(=O)C1=C(O)[C@@H]2[C@H]3c4c[nH]c5cccc(c45)C[C@H]3C(C)(C)N2C1=O
relative viability EC50: > 10 µM
//
molecule: Cc1[nH]c(/C=C2\C(=O)Nc3cc(-c4ccccc4)ccc32)c(C)c1CCC(=O)O [SU16f]
relative viability EC50: > 10 µM
//
molecule: Cc1ncc(C[n+]2csc(CCOP(=O)(O)OP(=O)(O)O)c2C)c(N)n1 [thiamine-pyrophosphate]
relative viability EC50: > 10 µM
//
molecule: NS(=O)(=O)c1ccc(C(=O)O)cc1 [carzenide]
relative viability EC50: > 10 µM
//
molecule: C(#Cc1nc2ncccc2nc1OCCN1CCCC1)c1ccccc1
relative viability EC50: 2.61 µM
//
molecule: CC(=O)N[C@@H](CC(=O)O)C(=O)N[C@@H](CCC(=O)O)C(=O)O
relative viability EC50: > 10 µM
//
molecule: C[C@H](CCC(=O)O)[C@H]1CC[C@H]2[C@@H]3CC[C@@H]4C[C@H](O)CC[C@]4(C)[C@H]3CC[C@]12C
relative viability EC50: > 10 µM
//
molecule: [O-][n+]1cccc(CO)c1 [mepiroxol]
relative viability EC50: > 10 µM
//
molecule: Oc1cccc(-c2c3nc(c(-c4cccc(O)c4)c4ccc([nH]4)c(-c4cccc(O)c4)c4nc(c(-c5cccc(O)c5)c5ccc2[nH]5)CC4)C=C3)c1
relative viability EC50: > 10 µM
//
molecule: CCN1C[C@]2(COC(=O)c3ccccc3N3C(=O)C[C@H](C)C3=O)CC[C@H](OC)[C@@]34[C@@H]5C[C@H]6[C@H](OC)[C@@H]5[C@](O)(C[C@@H]6OC)[C@](O)([C@@H](OC)[C@H]23)[C@@H]14
relative viability EC50: > 10 µM
//
molecule: CC1(C)CC(=O)c2c(C(F)(F)F)nn(-c3ccc(C(N)=O)c(N[C@H]4CC[C@H](O)CC4)c3)c2C1
relative viability EC50: 0.0505 µM
//
molecule: CCOC(=O)Nc1ccc(NCc2ccc(F)cc2)nc1N
relative viability EC50: > 10 µM
//
molecule: Cc1ccc(-c2n[nH]c3c2C(c2cccc(O)c2)N(c2ccc(C(=O)O)cc2)C3=O)cc1 (stereo unspecified)
relative viability EC50: > 10 µM
//
molecule: CCC(COC(=O)c1cc(OC)c(OC)c(OC)c1)(c1ccccc1)N(C)C (stereo unspecified)
relative viability EC50: > 10 µM
//
molecule: Cc1nccn1CC1CCc2c(c3ccccc3n2C)C1=O (stereo unspecified)
relative viability EC50: > 10 µM
//
molecule: CCn1c2ccccc2c2cc(CNC)ccc21
relative viability EC50: > 10 µM
//
molecule: OC(c1ccccc1)(c1ccccc1)C12CC[N+](CCOCc3ccccc3)(CC1)CC2
relative viability EC50: > 10 µM
//
molecule: c1ccc2c(c1)sc1ccccc12
relative viability EC50: > 10 µM
//
molecule: CCCCC1(COC(=O)CCC(=O)O)C(=O)N(c2ccccc2)N(c2ccccc2)C1=O
relative viability EC50: > 10 µM
//
molecule: CCc1cc(C(C)=O)c(O)cc1OCCCCCC(C)(C)c1nn[nH]n1
relative viability EC50: > 10 µM
//
molecule: CC(C)c1nc(CN(C)C(=O)N[C@H](C(=O)N[C@@H](Cc2ccccc2)C[C@H](O)[C@H](Cc2ccccc2)NC(=O)OCc2cncs2)C(C)C)cs1
relative viability EC50: > 10 µM

---

System: Vero E6
measurement_description: relative viability EC50 (midpoint between 100% and the lowest measured viability); higher = less toxic
settings: 72 h
Here the recorded relative viability EC50 is given for each entry.
endpoint_label: relative viability EC50

compound: CC(C)N(CCC(C(N)=O)(c1ccccc1)c1ccccn1)C(C)C (stereo not given) [disopyramide]
experimental_value: > 10 µM

compound: Cc1onc(-c2ccccc2Cl)c1C(=O)N[C@@H]1C(=O)N2[C@@H]1SC(C)(C)[C@@H]2C(=O)O
experimental_value: > 10 µM

compound: COc1cccc(N(C)C(=S)Oc2ccc3c(c2)CCCC3)n1 [liranaftate]
experimental_value: > 10 µM

compound: Cc1[nH]c2ccccc2c1CCNCc1ccc(/C=C/C(=O)NO)cc1
experimental_value: 0.142 µM

compound: Clc1ccc(C(c2ccc(Cl)cc2)C(Cl)(Cl)Cl)cc1
experimental_value: > 10 µM

compound: CCOC(=O)Nc1ccc(NCc2ccc(F)cc2)nc1N
experimental_value: > 10 µM

compound: Nc1ncnc2c1ncn2[C@@H]1O[C@H](COP(=O)(O)O)[C@@H](O)[C@H]1O [adenosine-phosphate]
experimental_value: > 10 µM

compound: CCNC(=O)c1n[nH]c(-c2cc(Cl)c(O)cc2O)c1-c1ccc(OC)cc1
experimental_value: 1.29 µM

compound: Nc1ncnc2c1ncn2[C@@H]1O[C@H](CO)C[C@H]1O [cordycepin]
experimental_value: > 10 µM

compound: Cc1ccc(Cl)c(OCC(O)CNC(C)(C)C)c1 (stereo not given)
experimental_value: > 10 µM

compound: CCCCC[C@H](O)/C=C/[C@H]1[C@H](O)CC(=O)[C@@H]1C/C=C\CCCC(=O)O
experimental_value: > 10 µM

compound: CC(C)=CCC[C@](C)(O[C@@H]1O[C@H](CO)[C@@H](O)[C@H](O)[C@H]1O)[C@H]1CC[C@]2(C)[C@@H]1[C@H](O)C[C@@H]1[C@@]3(C)CC[C@H](O)C(C)(C)[C@@H]3CC[C@]12C [ginsenoside-C-K]
experimental_value: > 10 µM

compound: C[C@H](CCC(=O)O)[C@H]1CC[C@H]2[C@@H]3CC[C@@H]4C[C@H](O)CC[C@]4(C)[C@H]3CC[C@]12C
experimental_value: > 10 µM

compound: CO/N=C(\C(=O)N[C@@H]1C(=O)N2C(C(=O)[O-])=C(C[n+]3ccn4ncccc43)CS[C@H]12)c1nsc(N)n1
experimental_value: > 10 µM

compound: COc1ccc(-c2cnc3c(-c4cccc5ncccc45)cnn3c2)cc1
experimental_value: > 10 µM

compound: Cc1cc(C)c(NC(=O)N(Cc2ccc3c(c2)Cc2ccccc2-3)C2CCCCCC2)c(C)c1
experimental_value: > 10 µM

compound: CNCCc1ccc(O)c(O)c1 [deoxyepinephrine]
experimental_value: > 10 µM

compound: CC1(C)CC(=O)c2c(C(F)(F)F)nn(-c3ccc(C(N)=O)c(N[C@H]4CC[C@H](O)CC4)c3)c2C1
experimental_value: 0.639 µM

compound: CNC(=O)CN(CCN(CCN(CC(=O)[O-])CC(=O)NC)CC(=O)[O-])CC(=O)[O-].[Gd+3] [gadodiamide]
experimental_value: > 10 µM

compound: N=C(N)c1cc2ccc(OC(=O)c3cccs3)cc2s1
experimental_value: > 10 µM

compound: NC(=O)c1cnccn1 [pyrazinamide]
experimental_value: > 10 µM

compound: Nc1nc2[nH]cc(CCc3ccc(C(=O)N[C@@H](CCC(=O)O)C(=O)O)cc3)c2c(=O)[nH]1
experimental_value: 0.768 µM

compound: CN1CCCC(n2nc(Cc3ccc(Cl)cc3)c3ccccc3c2=O)CC1 (stereo not given)
experimental_value: > 10 µM

compound: O=C(c1ccc(F)c(F)c1Nc1ccc(I)cc1F)N1CC(O)([C@@H]2CCCCN2)C1
experimental_value: 0.0591 µM

compound: OCCN1CCN(CC/C=C2/c3ccccc3Sc3ccc(C(F)(F)F)cc32)CC1
experimental_value: > 10 µM
